Target: UniProtKB P21728
Sequence (P21728 whole entry): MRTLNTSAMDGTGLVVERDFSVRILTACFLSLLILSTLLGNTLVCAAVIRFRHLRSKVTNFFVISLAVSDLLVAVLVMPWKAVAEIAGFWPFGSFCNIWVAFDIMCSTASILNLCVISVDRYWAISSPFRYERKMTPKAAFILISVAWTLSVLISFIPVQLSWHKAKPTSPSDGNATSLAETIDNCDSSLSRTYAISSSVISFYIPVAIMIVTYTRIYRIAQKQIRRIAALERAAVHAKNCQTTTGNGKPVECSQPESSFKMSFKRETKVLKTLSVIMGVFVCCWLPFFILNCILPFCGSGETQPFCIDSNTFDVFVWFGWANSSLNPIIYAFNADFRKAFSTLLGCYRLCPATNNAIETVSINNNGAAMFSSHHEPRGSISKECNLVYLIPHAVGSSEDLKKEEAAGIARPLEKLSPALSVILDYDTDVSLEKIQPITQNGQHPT
Assay: DRUGMATRIX: Dopamine D1 radioligand binding (ligand: [3H] SCH-23390)
Type: cell membranes, CHO, Membrane
Details: cho; Not Active = under 50% inhibition at 10 µM
Attribute measured: IC50

[[record]]
compound = "COc1cc2nc(N3CCN(C(=O)C4CCCO4)CC3)nc(N)c2cc1OC (configuration not stated)"
attribute_measured = "IC50"
obs_value = "Not Active"

[[record]]
compound = "N=C(N)NC(=O)Cc1c(Cl)cccc1Cl"
attribute_measured = "IC50"
obs_value = "Not Active"

[[record]]
compound = "CC(C)Oc1ccc2c(=O)c(-c3ccccc3)coc2c1"
attribute_measured = "IC50"
obs_value = "Not Active"

[[record]]
compound = "C[n+]1ccccc1/C=N/O.[Cl-] [PRALIDOXIME CHLORIDE]"
attribute_measured = "IC50"
obs_value = "Not Active"

[[record]]
compound = "CCC1(CCC(C)C)C(=O)NC(=O)NC1=O"
attribute_measured = "IC50"
obs_value = "Not Active"

[[record]]
compound = "CCN(CC)CCNC(=O)c1cc(S(C)(=O)=O)ccc1OC [TIAPRIDE]"
attribute_measured = "IC50"
obs_value = "Not Active"

[[record]]
compound = "NCCCC(O)(P(=O)(O)O)P(=O)(O)O"
attribute_measured = "IC50"
obs_value = "Not Active"

[[record]]
compound = "O=C1O[C@H]([C@@H](O)CO)C(O)=C1O"
attribute_measured = "IC50"
obs_value = "Not Active"

[[record]]
compound = "Cc1c(C)c2c(c(C)c1O)CCC(C)(CN1CCN(c3cc(N4CCCC4)nc(N4CCCC4)n3)CC1)O2 (configuration not stated)"
attribute_measured = "IC50"
obs_value = "Not Active"

[[record]]
compound = "CN(C)[C@@H]1C(O)=C(C(N)=O)C(=O)[C@@]2(O)C(O)=C3C(=O)c4c(O)ccc(Cl)c4[C@@](C)(O)[C@H]3C[C@@H]12"
attribute_measured = "IC50"
obs_value = "Not Active"

[[record]]
compound = "CCN(CC)CCOCCC1=CCC2CC1C2(C)C (configuration not stated)"
attribute_measured = "IC50"
obs_value = "Not Active"

[[record]]
compound = "OC(CCCN1CCCCC1)(c1ccccc1)c1ccccc1"
attribute_measured = "IC50"
obs_value = "Not Active"

[[record]]
compound = "NNc1nncc2ccccc12 [HYDRALAZINE]"
attribute_measured = "IC50"
obs_value = "Not Active"

[[record]]
compound = "Cn1c(=O)c2c(ncn2CC(O)CO)n(C)c1=O (configuration not stated)"
attribute_measured = "IC50"
obs_value = "Not Active"

[[record]]
compound = "CNC1(c2ccccc2Cl)CCCCC1=O (configuration not stated)"
attribute_measured = "IC50"
obs_value = "Not Active"

[[record]]
compound = "Cc1cccc(C)c1OCC(C)N (configuration not stated)"
attribute_measured = "IC50"
obs_value = "Not Active"

[[record]]
compound = "C[C@@H]1CC[C@@]2(OC1)O[C@H]1[C@@H](O)[C@H]3[C@@H]4CC[C@H]5C[C@@H](O[C@@H]6O[C@H](CO)[C@H](O[C@@H]7O[C@H](CO)C(O)[C@H](O[C@@H]8OC[C@@H](O)[C@H](O)[C@H]8O)[C@H]7O[C@@H]7O[C@H](CO)[C@H](O)[C@H](O[C@@H]8O[C@H](CO)[C@@H](O)[C@H](O)[C@H]8O)[C@H]7O)[C@H](O)[C@H]6O)[C@H](O)C[C@]5(C)[C@H]4CC[C@]3(C)[C@H]1[C@@H]2C (some centres not stated)"
attribute_measured = "IC50"
obs_value = "Not Active"

